molecules and their reported Hepatotoxicity (acute)
- procedure.text: Highest frequency of acute liver toxicity observed during clinical trials, expressed as a percentage. [column '% AIGUE' in source]
- particulars: human

molecule: C[C@H]1C[C@H]2[C@@H]3CCC4=CC(=O)C=C[C@]4(C)[C@@]3(Cl)[C@@H](O)C[C@]2(C)[C@@]1(O)C(=O)CO [BECLOMETHASONE]
Hepatotoxicity (acute): 0%
//
molecule: CCc1nc(N)nc(N)c1-c1ccc(Cl)cc1 [PYRIMETHAMINE]
Hepatotoxicity (acute): 0%
//
molecule: CN(C)C/C=C(/c1ccc(Br)cc1)c1cccnc1 [ZIMELDINE]
Hepatotoxicity (acute): 6.6%
//
molecule: NC(=O)OCC(COC(N)=O)c1ccccc1 [FELBAMATE]
Hepatotoxicity (acute): 0%
//
molecule: COCCCN1CCC(NC(=O)c2cc(Cl)c(N)c3c2OCC3)CC1 [PRUCALOPRIDE]
Hepatotoxicity (acute): 0%
//
molecule: CN(C)[C@@H]1C(O)=C(C(N)=O)C(=O)[C@@]2(O)C(O)=C3C(=O)c4c(O)ccc(Cl)c4[C@@](C)(O)[C@H]3C[C@@H]12 [CHLORTETRACYCLINE]
Hepatotoxicity (acute): 0%
//
molecule: O=C(NCN1CCOCC1)c1cnccn1 [MORINAMIDE]
Hepatotoxicity (acute): 0.5%
//
molecule: CCC[C@@H]1C[C@@H](C(=O)N[C@@H]([C@H]2O[C@H](SC)[C@H](O)[C@@H](O)[C@H]2O)[C@H](C)Cl)N(C)C1 [CLINDAMYCIN]
Hepatotoxicity (acute): 0%
//
molecule: C=CC1=C(C(=O)O)N2C(=O)[C@@H](NC(=O)/C(=N\O)c3csc(N)n3)[C@H]2SC1
Hepatotoxicity (acute): 0%
//
molecule: CC(/C=N/NC(=N)N)=N\NC(=N)N [MITOGUAZONE]
Hepatotoxicity (acute): 0%
//
molecule: CC(C)(O/N=C(\C(=O)N[C@@H]1C(=O)N2C(C(=O)[O-])=C(C[n+]3ccccc3)CS[C@H]12)c1csc(N)n1)C(=O)O [CEFTAZIDIME]
Hepatotoxicity (acute): 2.5%
//
molecule: CCCc1cc(C(N)=S)ccn1 [PROTIONAMIDE]
Hepatotoxicity (acute): 2.5%
//
molecule: COC(=O)C1=C(C)NC(C)=C(C(=O)OCC(C)C)C1c1ccccc1[N+](=O)[O-] (stereo unspecified) [NISOLDIPINE]
Hepatotoxicity (acute): 0%
//
molecule: CC(C)(Oc1ccc(Cl)cc1)C(=O)OCCOC(=O)c1cccnc1 [ETOFIBRATE]
Hepatotoxicity (acute): 0%
//
molecule: CO/N=C(\C(=O)N[C@@H]1C(=O)N2C(C(=O)O)=C(COC(N)=O)CS[C@H]12)c1ccco1 [CEFUROXIME]
Hepatotoxicity (acute): 0%
//
molecule: CCN[C@@H]1C[C@H](N)[C@@H](O[C@H]2OC(CN)=CC[C@H]2N)[C@H](O)[C@H]1O[C@H]1OC[C@](C)(O)[C@H](NC)[C@H]1O [NETILMICIN]
Hepatotoxicity (acute): 0%

---

molecules and their reported Hepatotoxicity (choleostasis)
- particulars: human

molecule: O=c1[nH]c(=O)n([C@@H]2O[C@H](CO)[C@@H](O)[C@@H]2O)cc1/C=C/Br
Hepatotoxicity (choleostasis): 0
//
molecule: CCCNC(=O)NS(=O)(=O)c1ccc(Cl)cc1 [CHLORPROPAMIDE]
Hepatotoxicity (choleostasis): 29
//
molecule: CN1CCN(CCCN2c3ccccc3Sc3ccccc32)CC1
Hepatotoxicity (choleostasis): 1
//
molecule: CC(C(=O)O)c1ccc(N2CC=CC2)c(Cl)c1 (stereo not drawn)
Hepatotoxicity (choleostasis): 2
//
molecule: NC(=O)N1C(=O)/C(=C(\O)c2cccs2)c2cc(Cl)ccc21
Hepatotoxicity (choleostasis): 1
//
molecule: Nc1nc(Cl)nc2c1ncn2[C@H]1C[C@H](O)[C@@H](CO)O1
Hepatotoxicity (choleostasis): 0
//
molecule: CO[C@@H]1[C@@H](N)[C@@H](O[C@H]2[C@H](Oc3cccc4c(O)c5c(=O)oc6ccc(C)c7c(=O)oc(c34)c5c67)O[C@H](C)[C@H](O)[C@]2(C)O)O[C@H](C)[C@@H]1O
Hepatotoxicity (choleostasis): 0
//
molecule: CO/N=C(\C(=O)N[C@@H]1C(=O)N2C(C(=O)[O-])=C(C[N+]34CCC(C(N)=O)(CC3)CC4)CS[C@H]12)c1nsc(N)n1
Hepatotoxicity (choleostasis): 0

---

- particulars: human
readout.label: Hepatotoxicity (severe hepatitis)

molecule: CC[C@H](C)C[C@H](C)CCCCCCCCC(=O)N[C@H]1C[C@@H](O)[C@@H](NCCN)NC(=O)[C@@H]2[C@@H](O)CCN2C(=O)[C@H]([C@H](O)CCN)NC(=O)[C@H]([C@H](O)[C@@H](O)c2ccc(O)cc2)NC(=O)[C@@H]2C[C@@H](O)CN2C(=O)[C@H]([C@@H](C)O)NC1=O
reported: 0
//
molecule: CC(=O)OCC(=O)[C@@]1(O)CC[C@H]2[C@@H]3CCC4=CC(=O)C=C[C@]4(C)[C@@]3(F)[C@@H](O)C[C@@]21C [ISOFLUPREDONE ACETATE]
reported: 0
//
molecule: C=CCC(C(=O)NC(N)=O)C(C)C (stereo not given)
reported: 0
//
molecule: Sc1ncnc2[nH]ncc12
reported: 0
//
molecule: C[C@@H](c1ncncc1F)[C@](O)(Cn1cncn1)c1ccc(F)cc1F
reported: 1
//
molecule: CC1(C)[C@@H](OC(=O)CCC(=O)O)CC[C@]2(C)[C@H]3C(=O)C=C4[C@@H]5C[C@@](C)(C(=O)O)CC[C@]5(C)CC[C@@]4(C)[C@]3(C)CC[C@@H]12
reported: 0
//
molecule: CC1CCCC(C)N1CCCC(O)(c1ccccc1)c1ccccn1 (stereo not given)
reported: 0
//
molecule: COC(F)(F)C(Cl)Cl
reported: 19
//
molecule: [H]/N=C(\N/C(=N/[H])NCCCCCCNC(=N)NC(=N)Nc1ccc(Cl)cc1)Nc1ccc(Cl)cc1
reported: 0
//
molecule: Cc1ccc(O)c([C@H](CCN(C(C)C)C(C)C)c2ccccc2)c1
reported: 0
//
molecule: CCN(CC)CCNc1ccc(CO)c2sc3ccccc3c(=O)c12
reported: 16
//
molecule: C[C@@H](O)[C@H]1C(=O)N2C(C(=O)O)=C([C@H]3CCCO3)S[C@H]12
reported: 0
//
molecule: N[C@@H](C(=O)N[C@@H]1C(=O)N2C(C(=O)O)=C(Cl)CS[C@H]12)c1ccccc1 [CEFACLOR ANHYDROUS]
reported: 0
//
molecule: CCc1oc2ccccc2c1C(=O)c1cc(Br)c(O)c(Br)c1
reported: 4
//
molecule: CC(C)[C@@H](CC[C@@H](C)[C@H]1CC[C@H]2[C@@H]3[C@H](O)C[C@H]4C[C@@H](NCCCNCCCCN)CC[C@]4(C)[C@H]3CC[C@]12C)OS(=O)(=O)O
reported: 0

---

- particulars: human
compounds and their reported Hepatotoxicity (cytolytic)
readout.label: Hepatotoxicity (cytolytic)

compound: COc1ccc(CCN(C)CCCC2(c3ccc(OC)c(OC)c3)S(=O)(=O)CCCS2(=O)=O)cc1OC
reported: 0
//
compound: O=C(O)C1N=C(c2ccccc2)c2cc(Cl)ccc2NC1=O (stereo not given) [CLORAZEPIC ACID]
reported: 2
//
compound: CNCCON=c1c2ccccc2ccc2ccccc12
reported: 1
//
compound: COc1ccc(-n2nc(CCC(=O)N(C)O)cc2-c2ccc(Cl)cc2)cc1
reported: 0
//
compound: CC1Cc2ccccc2N1NC(=O)c1ccc(Cl)c(S(N)(=O)=O)c1 (stereo not given) [INDAPAMIDE]
reported: 3
//
compound: COc1cc(NS(=O)(=O)c2ccc(N)cc2)nc(OC)n1
reported: 1
//
compound: CC(C)c1nc(CN(C)C(=O)N[C@H](C(=O)N[C@@H](Cc2ccccc2)C[C@H](O)[C@H](Cc2ccccc2)NC(=O)OCc2cncs2)C(C)C)cs1
reported: 11
//
compound: CC(C(=O)O)c1ccc(N2CC=CC2)c(Cl)c1 (stereo not given)
reported: 9
//
compound: CN(c1nccc(=O)[nH]1)C1CCN(c2nc3ccccc3n2Cc2ccc(F)cc2)CC1
reported: 2
//
compound: Nc1ncc2ncn(COCCO)c2n1
reported: 0
//
compound: Cc1cc(C(=O)NCCc2ccc(S(=O)(=O)NC(=O)NN3CCCCCC3)cc2)no1 [GLISOXEPIDE]
reported: 0
//
compound: Cc1cccc(Nc2cc(Cl)nc(SCC(=O)NCCO)n2)c1C
reported: 0
//
compound: COc1ccc2c(C(=S)N(C)CC(=O)O)cccc2c1C(F)(F)F
reported: 2
//
compound: CO[C@@H]1O[C@H](CO)[C@H](O)[C@H](O[C@@H]2O[C@@H](C(=O)O)[C@@H](OC)[C@H](O)[C@H]2O)[C@H]1NC(C)=O
reported: 0
//
compound: CCN(CC)CCNc1ccc(CO)c2sc3ccccc3c(=O)c12
reported: 3
//
compound: C=CCC1(C(C)C#CCC)C(=O)N=C(O)N(C)C1=O (stereo not given)
reported: 0
//
compound: CCC(=O)O[C@@H](O[P@](=O)(CCCCc1ccccc1)CC(=O)N1C[C@H](C2CCCCC2)C[C@H]1C(=O)O)C(C)C
reported: 0
//
compound: FC(F)OC(Cl)C(F)(F)F (stereo not given)
reported: 20
//
compound: C=CCNc1nc(NCC=C)nc(N2CCN(C(c3ccc(F)cc3)c3ccc(F)cc3)CC2)n1
reported: 1
//
compound: O=c1[nH]c(=O)n([C@H]2C[C@H](O)[C@@H](CO)O2)cc1I
reported: 0
//
compound: O=C(O)Cc1sc(-c2ccccc2)nc1-c1ccc(Cl)cc1
reported: 1
//
compound: CC(=O)Nc1ccc(/C=N/NC(N)=S)cc1
reported: 5
//
compound: CCCCC(C)(O)C/C=C/[C@H]1[C@H](O)CC(=O)[C@@H]1CCCCCCC(=O)OC (stereo not given in full)
reported: 0
//
compound: Cn1c(=O)c2[nH]cnc2n(C)c1=O.O
reported: 1
//
compound: O=C1Cc2cc(CCN3CCN(c4nsc5ccccc45)CC3)c(Cl)cc2N1
reported: 0
//
compound: CC(O)CCC(=O)c1ccoc1 (stereo not given)
reported: 0
//
compound: CC(C)Nc1ncccn1
reported: 13
//
compound: Cc1nnc2n1-c1ccc(Cl)cc1C(c1ccccc1)=NC2
reported: 2
//
compound: CC(C)NCC1CCc2cc(CO)c([N+](=O)[O-])cc2N1 (stereo not given)
reported: 0
//
compound: COc1ccc([C@@H]2Sc3cc(Cl)ccc3N(CCN(C)C)C(=O)[C@@H]2OC(C)=O)cc1
reported: 0
//
compound: Cc1ccc(NC(=O)c2ccc(CN3CCN(C)CC3)cc2)cc1Nc1nccc(-c2cccnc2)n1
reported: 1
//
compound: CS[C@H]1SC[C@H]2C(=O)N(C)[C@@H](C(C)C)C(=O)OC[C@@H](NC(=O)c3cnc4ccccc4n3)C(=O)N[C@@H](C)C(=O)N(C)[C@@H]1C(=O)N(C)[C@@H](C(C)C)C(=O)OC[C@@H](NC(=O)c1cnc3ccccc3n1)C(=O)N[C@@H](C)C(=O)N2C
reported: 3
//
compound: COc1cc2nc(N3CCN(C(=O)C4COc5ccccc5O4)CC3)nc(N)c2cc1OC (stereo not given)
reported: 0
//
compound: CCCN1CCO[C@@H]2c3cc(O)ccc3CC[C@H]21 [NAXAGOLIDE]
reported: 0
//
compound: O=C(Oc1ccccc1C(=O)O)c1ccccc1O [SALSALATE]
reported: 2

Origin of measurements: ChEMBL document CHEMBL3137667
